tested on: Enterococcus faecalis; test: Antibacterial activity against Streptococcus faecalis assessed as zone of inhibition at 1.0 mg/mL by agar well diffusion method; assay type: functional; details: read-out: IZ
testReadout: zone of inhibition at 1000 µg/mL (mm)
Report only the number, with the unit mm understood.

Q) Looking for the measured zone of inhibition at 1000 µg/mL of "C[C@@H]([C@H]1CC[C@H]2[C@@H]3CC[C@H]4C[C@@H](N)CC[C@]4(C)[C@H]3CC[C@]12C)N(C)C" , can you help?
A) 10

Q) Request: "CN[C@@H](C)[C@H]1CC[C@H]2[C@@H]3CC[C@H]4[C@@H](OC(C)=O)[C@@H](NC(=O)C=C(C)C)CC[C@]4(C)[C@H]3CC[C@]12C"
A) 10

Q) Moving on to "C[C@@H]([C@H]1CC[C@H]2[C@@H]3CC[C@H]4C[C@@H](N(C)C)CC[C@]4(C)[C@H]3CC[C@]12C)N(C)C"
A) 8

Q) Same lookup for "C/C=C(\C)C(=O)NC1=CC[C@@]2(C)C(=CC[C@H]3[C@@H]4CC[C@H]([C@H](C)NC)[C@@]4(C)CC[C@@H]32)C1=O" , please.
A) 10

Q) Would you kindly repeat that for C[C@@H]([C@H]1CC=C2[C@@H]3CCC4=C[C@@H](N(C)C)CC[C@]4(C)[C@H]3CC[C@@]21C)N(C)C [HOOKERIANAMIDE K] ?
A) 10

Q) Also CN[C@@H](C)[C@H]1CC[C@H]2[C@@H]3CC[C@H]4C[C@@H](N(C)C(=O)c5ccccc5)CC[C@]4(C)[C@H]3CC[C@]12C [HOOKERIANAMIDE I] , if possible.
A) 8

Q) Quick one: "C/C=C(\C)C(=O)N[C@H]1CC[C@]2(C)[C@H]3CC[C@]4(C)[C@@H]([C@H](C)NC)CC[C@H]4[C@@H]3CC[C@H]2[C@H]1OC(C)=O"
A) 12

* * *

Please respond with reported IC50 for every item in the list.
test system: Leishmania major; assay: Antileishmanial activity against Leishmania major; format: functional, organism-based
All answers are understood in µM, so give the number only.

Q) // returns reported IC50 for input C[C@@H]([C@H]1CC[C@H]2[C@@H]3CC[C@H]4C(=O)C(NC=O)=CC[C@]4(C)[C@H]3CC[C@]12C)N(C)C [HOOKERIANAMIDE H]
A) 22.4

Q) Lookup "N=C(N)c1ccc(OCCCCCOc2ccc(C(=N)N)cc2)cc1"
A) 7.5

Q) Another: CN[C@@H](C)[C@H]1CC[C@H]2[C@@H]3CC[C@H]4C[C@@H](N(C)C(=O)c5ccccc5)CC[C@]4(C)[C@H]3CC[C@]12C [HOOKERIANAMIDE I]
A) 8.8

Q) Note, next up: "C[C@@H]1[C@H](O)[C@@H](C)/C=C/C=C/C=C/C=C/C=C/C=C/C=C/[C@H](O[C@@H]2O[C@H](C)[C@@H](O)[C@H](N)[C@@H]2O)C[C@@H]2O[C@](O)(C[C@@H](O)C[C@@H](O)[C@H](O)CC[C@@H](O)C[C@@H](O)CC(=O)O[C@H]1C)C[C@H](O)[C@H]2C(=O)O"
A) 0.5

* * *

molecular target: UniProt:P06276
Sequence (P06276 whole entry): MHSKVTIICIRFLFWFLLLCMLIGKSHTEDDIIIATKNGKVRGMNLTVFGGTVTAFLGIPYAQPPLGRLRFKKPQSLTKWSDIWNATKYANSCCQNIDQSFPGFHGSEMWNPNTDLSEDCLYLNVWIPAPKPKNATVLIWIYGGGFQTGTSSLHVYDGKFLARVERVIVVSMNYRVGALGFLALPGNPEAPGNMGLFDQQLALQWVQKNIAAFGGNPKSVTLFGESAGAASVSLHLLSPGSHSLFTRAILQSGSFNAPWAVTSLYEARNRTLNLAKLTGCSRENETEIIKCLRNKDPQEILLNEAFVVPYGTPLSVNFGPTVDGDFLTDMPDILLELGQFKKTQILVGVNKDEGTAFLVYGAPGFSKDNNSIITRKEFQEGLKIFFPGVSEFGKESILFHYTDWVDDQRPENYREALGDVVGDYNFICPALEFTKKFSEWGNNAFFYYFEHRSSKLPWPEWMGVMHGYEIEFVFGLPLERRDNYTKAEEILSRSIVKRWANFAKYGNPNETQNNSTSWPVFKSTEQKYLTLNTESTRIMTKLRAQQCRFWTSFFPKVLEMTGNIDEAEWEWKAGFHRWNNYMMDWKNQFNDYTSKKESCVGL
pIC50: −log10 of the molar value.
Mark N for pIC50 values under 6, and Y for everything at or above.

Q) Is it the case that "C[C@@H]([C@H]1CC[C@H]2[C@@H]3CC[C@H]4C[C@@H](N(C)C)CC[C@]4(C)[C@H]3CC[C@]12C)N(C)C" has pIC50 reaching or exceeding 6?
A) N

Q) What do we get for C/C=C(\C)C(=O)N[C@H]1CC[C@]2(C)[C@H]3CC[C@]4(C)[C@@H]([C@H](C)NC)CC[C@H]4[C@@H]3CC[C@H]2[C@H]1OC(C)=O [SARCOVAGINE C] ?
A) Y

Q) Item: C[C@@H]([C@H]1CC[C@H]2[C@@H]3CC[C@H]4C[C@@H](N)CC[C@]4(C)[C@H]3CC[C@]12C)N(C)C [CHONEMORPHINE]
A) Y

Q) Same thing, different molecule: "CN[C@@H](C)[C@H]1CC[C@H]2[C@@H]3CC=C4C(=O)[C@@H](NC(=O)C=C(C)C)CC[C@]4(C)[C@H]3CC[C@]12C"
A) Y

Q) Similarly, C[C@@H]([C@H]1CC=C2[C@@H]3CCC4=C[C@@H](N(C)C)CC[C@]4(C)[C@H]3CC[C@@]21C)N(C)C [HOOKERIANAMIDE K] ?
A) N
